The measurements presented in this section are drawn from ChEMBL document CHEMBL4619765.

Tested on: LNCaP
Procedure details: Cytotoxicity against human LNCAP cells
Type: functional
Experimental parameters: read-out: ED50 (the source's name)
pEC50: −log10 of the molar value.

Molecular string: COc1cc2c(cc1OC)[C@]1(O)C(=O)c3ccc4c(c3O[C@@H]1CO2)C=CC(C)(C)O4
pEC50: 6.15 to 6.52
